Entry source: PubChem BioAssay (NCI)

Test system: SK-OV-3 ovarian
Experiment: NCI tumour cell line growth inhibition, 48 h
measure: TGI (µM)
Report the value in µM with no unit label.

Prompt: Enter measured TGI, system SK-OV-3 ovarian, for the compound shown: `Cc1nc2ccccc2c(N)c1-c1cc(C)c2c(C)nc3ccccc3c2n1`
Completion: 4.72

Prompt: Enter measured TGI, system SK-OV-3 ovarian, for the compound shown: `Cc1cc(I)cc(CN(C)CCCCN2CCCCC2)c1O`
Completion: 42.4

Prompt: Enter measured TGI, system SK-OV-3 ovarian, for the compound shown: `C=C1c2nc3ccccc3n2C=C(c2ccccc2)N1c1ccc([N+](=O)[O-])cc1`
Completion: 15.3

Prompt: Enter measured TGI, system SK-OV-3 ovarian, for the compound shown: `FC(F)(F)c1cc(Cl)cnc1N/N=C(/c1ccccc1)c1ccccn1`
Completion: 9.9

Prompt: Enter measured TGI, system SK-OV-3 ovarian, for the compound shown: `COC(=O)c1cc2c(n1S(=O)(=O)c1ccc(C)cc1)C(=O)C(=O)c1[nH]cc(C(=O)OCc3ccccc3)c1-2`
Completion: 2.13

====

Tested on: ACHN renal
Assay: NCI tumour cell line growth inhibition, 48 h
Assign TGI to each entry below.

Prompt: Enter measured TGI, system ACHN renal, for the compound shown: `CCCCCCCCCCCCCCCCCC(CCCCCCCCCCCCCCCCC)OP(=O)(O)O`
Completion: > 100 µM

Prompt: Enter measured TGI, system ACHN renal, for the compound shown: O=C1OCC(O)=C1C(c1ccc(Cl)cc1)c1cc2c(cc1O)OCO2 (centres undefined)
Completion: > 100 µM

Prompt: Enter measured TGI, system ACHN renal, for the compound shown: `Cc1ccsc1/C=N/Nc1ncccn1`
Completion: > 100 µM

Prompt: Enter measured TGI, system ACHN renal, for the compound shown: C=C(Br)C(C)(Cl)CCC(Br)C(C)(C)Cl (centres undefined)
Completion: 75 µM

Prompt: Enter measured TGI, system ACHN renal, for the compound shown: `COc1cc([C@@H]2c3cc4c(cc3[C@@H](Nc3ccc([N+](=O)[O-])cc3C(=O)c3ccccc3)[C@H]3COC(=O)[C@H]23)OCO4)cc(OC)c1OC`
Completion: > 100 µM

Prompt: Enter measured TGI, system ACHN renal, for the compound shown: `CC(=O)NNc1nc(C)c(C(=O)NNC(=O)C(=O)Nc2ccc(Cl)cc2)s1`
Completion: > 100 µM

Prompt: Enter measured TGI, system ACHN renal, for the compound shown: CCCNC1=C2CC(C)CC(OC)[C@@H](O)[C@H](C)/C=C(\C)C(OC(N)=O)C(OC)/C=C\C=C(/C)C(=O)NC(=CC1=O)C2=O (some centres undefined)
Completion: 91.4 µM

Prompt: Enter measured TGI, system ACHN renal, for the compound shown: CC(=O)O[C@H]1C(=O)[C@]2(C)[C@@H](OC(=O)OCCC(O)CO)C[C@H]3OC[C@@]3(OC(C)=O)[C@H]2[C@H](OC(=O)c2ccccc2)[C@]2(O)C[C@H](OC(=O)[C@H](O)[C@@H](NC(=O)c3ccccc3)c3ccccc3)C(C)=C1C2(C)C (some centres undefined)
Completion: > 100 µM

Prompt: Enter measured TGI, system ACHN renal, for the compound shown: Cc1ccc(SCC(CSCCO)OCn2cnc3c2NC(N)=NC32OCCO2)cc1 (centres undefined)
Completion: > 100 µM

Prompt: Enter measured TGI, system ACHN renal, for the compound shown: `COc1ccc(C(=O)Cn2c(C(=O)c3ccccc3)nc(-c3ccc(OC)cc3)c2-c2ccc(OC)cc2)cc1`
Completion: > 100 µM

Prompt: Enter measured TGI, system ACHN renal, for the compound shown: `CC1=C(C(=O)NCc2ccccc2)C(/C=C/c2ccccc2)C(C(=O)NCc2ccccc2)=C(C)N1`
Completion: > 100 µM

Prompt: Enter measured TGI, system ACHN renal, for the compound shown: Nc1ccccc1SC(C[N+](=O)[O-])c1ccc2c(c1)OCO2 (centres undefined)
Completion: 19 µM

Prompt: Enter measured TGI, system ACHN renal, for the compound shown: `Cc1cc(C)nc(NS(=O)(=O)c2ccc(NC(=O)c3ccc(Cl)c4c(Nc5ccc(S(=O)(=O)Nc6nc(C)cc(C)n6)cc5)c5ccccc5nc34)cc2)n1`
Completion: > 100 µM

Prompt: Enter measured TGI, system ACHN renal, for the compound shown: CCN(CCO)CC1CCCC2CCCCC21 (centres undefined)
Completion: > 100 µM

Prompt: Enter measured TGI, system ACHN renal, for the compound shown: `O=C(N/C(=C\c1ccc(/C=C(\NC(=O)c2ccccc2)c2nc3cc([N+](=O)[O-])ccc3[nH]2)cc1)c1nc2cc([N+](=O)[O-])ccc2[nH]1)c1ccccc1`
Completion: > 100 µM

Prompt: Enter measured TGI, system ACHN renal, for the compound shown: `N#CCCN(CCC#N)c1ccc(/C=C2\N=C(c3cc([N+](=O)[O-])ccc3Cl)OC2=O)cc1`
Completion: > 100 µM

Prompt: Enter measured TGI, system ACHN renal, for the compound shown: CCCCC(=O)OCC(=O)[C@]1(O)Cc2c(O)c3c(c(O)c2[C@@H](OC2CC(NC(=O)C(F)(F)F)C(O)C(C)O2)C1)C(=O)c1c(OC)cccc1C3=O (some centres undefined)
Completion: 3.04 µM

Prompt: Enter measured TGI, system ACHN renal, for the compound shown: `CC(=O)NC1=C(NCCC(C)C)C(=O)c2ccccc2C1=O`
Completion: > 50 µM

Prompt: Enter measured TGI, system ACHN renal, for the compound shown: `O=C(O)CCc1coc2ccc(O)cc12`
Completion: > 100 µM

Prompt: Enter measured TGI, system ACHN renal, for the compound shown: `CC[C@@]1(C[C@H]2C[C@@]3(C(=O)OC)c4[nH]c5ccccc5c4CCN3C2=O)COC2(CCCCC2)O1`
Completion: > 100 µM

Prompt: Enter measured TGI, system ACHN renal, for the compound shown: O=C(COc1ccc(Br)cc1Br)N1N=C(c2ccc([N+](=O)[O-])o2)CC1(O)c1ccccc1 (centres undefined)
Completion: > 100 µM

Prompt: Enter measured TGI, system ACHN renal, for the compound shown: `O=C(NNC(=O)c1ccccc1SSc1ccccc1C(=O)NNC(=O)c1ccccc1S)c1ccccc1S`
Completion: > 100 µM

Prompt: Enter measured TGI, system ACHN renal, for the compound shown: COc1ccc2c3c1C(=O)CCCC3CO2 (centres undefined)
Completion: > 100 µM

Prompt: Enter measured TGI, system ACHN renal, for the compound shown: Cc1cn(C2CC(N(O)C(N)=O)C(CO)O2)c(=O)[nH]c1=O (centres undefined)
Completion: > 100 µM
